Ref: PubChem BioAssay (EPA / NIEHS)

Read-out: Forkhead box O1 (FOXO1), FOXO1 (gene 2308)
Assay: LTEA_HepaRG_FOXO1: Life Technologies and Expression Analysis (LTEA) Assay for Forkhead box O1 (FOXO1) using HepaRG (AID 2283456)
Conditions: mRNA level, 48 h; actives raise or lower the signal
Calls of active or inactive are those of the source. Rule for the calls: active = hit-call score of the fitted dose curve at least 0.9, where 1 is the maximum; inactive = score below 0.9.
Hello, when you answer, please use one of the following outcomes: label 1 = active, label 0 = inactive

CCON=C(CC)C1=C(O)CC(c2c(C)cc(C)cc2C)CC1=O (stereo not given)    label 0
CNC(=O)ON=CC(C)(C)SC    label 0
CCOC(=O)CC(SP(=S)(OC)OC)C(=O)OCC (stereo not given)    label 0
Cc1ccc(-c2c(Cl)nc(C#N)n2S(=O)(=O)N(C)C)cc1    label 1
CC1=C(C(=O)Nc2ccccc2)SCCO1    label 0

Now look at this entry.
Please indicate how the test categorized `COC(=O)C=C(C)OP(=O)(OC)OC` .
label 0

---

Test: APR_HepG2_CellCycleArrest_24hr: Apredica 24-hour HepG2 Assay for Cell Cycle Arrest (AID 2282905);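 note: cell cycle arrest scored as ratio of 2N to 4N nuclear DNA content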
Conditions: imaging, actives raise or lower the signal
The source made the active and inactive calls. Rule for the calls: active = hit-call score of the fitted dose curve at least 0.9, where 1 is the maximum; inactive = score below 0.9.
Hello, when you answer, please use one of the following outcomes: TRUE (active), FALSE (inactive)

OC(c1ccc(Cl)cc1)(c1cncnc1)c1ccccc1Cl (centres undefined)    FALSE
N#Cc1cc(Br)c(O)c(Br)c1    FALSE
Fc1ccc(Oc2ccnc3cc(Cl)cc(Cl)c23)cc1    FALSE
Oc1ccccc1-c1ccccc1    TRUE
C=CCC1=C(C)[C@@H](OC(=O)[C@@H]2[C@@H](C=C(C)C)C2(C)C)CC1=O    FALSE

Please indicate how the test categorized `COC(=O)N(OC)c1ccccc1COc1ccn(-c2ccc(Cl)cc2)n1` .
FALSE

Please indicate how the test categorized CC1COC(Cn2cncn2)(c2ccc(Oc3ccc(Cl)cc3)cc2Cl)O1 (centres undefined) .
FALSE

Please indicate how the test categorized `COc1nc(C)nc(NC(=O)NS(=O)(=O)c2ccccc2Cl)n1` .
FALSE

Please indicate how the test categorized `CCCCNC(=O)OCC#CI` .
FALSE

Please indicate how the test categorized `CS/C(C)=N/OC(=O)N(C)SN(C)C(=O)O/N=C(\C)SC` .
FALSE

Please indicate how the test categorized CCON=C(CC)C1=C(O)CC(c2c(C)cc(C)cc2C)CC1=O (centres undefined) .
FALSE

Please indicate how the test categorized COP(N)(=O)SC (centres undefined) .
FALSE

Please indicate how the test categorized `CCOP(=S)(OCC)SCn1c(=O)oc2cc(Cl)ccc21` .
FALSE

Please indicate how the test categorized `COc1nc(C)nc(NC(=O)NS(=O)(=O)c2ccccc2CCC(F)(F)F)n1` .
FALSE

---

Read-out: Urokinase-type plasminogen activator receptor (uPAR), PLAUR (gene 5329)
Assay: BSK_4H_uPAR: BioMAP Diversity Plus: 4H Assay for Urokinase-type plasminogen activator receptor (uPAR) Biomarker Activity (AID 2283030)
Conditions: primary human endothelial cells (HUVEC); actives raise or lower the signal
The source made the active and inactive calls. The calls were made as follows: active = hit-call score of the fitted dose curve at least 0.9, where 1 is the maximum; inactive = score below 0.9.
Reported metric: outcome

CON(C)C(=O)Nc1ccc(Cl)c(Cl)c1    inactive
CNC(=O)ON=CC(C)(C)SC    inactive
C=CCC1=C(C)[C@@H](OC(=O)[C@@H]2[C@@H](C=C(C)C)C2(C)C)CC1=O    inactive

---

Read-out: Glutathione S-Transferase (GSTA2), GSTA2 (gene 2939)
Assay: LTEA_HepaRG_GSTA2: Life Technologies and Expression Analysis (LTEA) Assay for Glutathione S-Transferase (GSTA2) using HepaRG (AID 2283497)
Details: mRNA level, 48 h; actives raise or lower the signal
Calls of active or inactive are those of the source. The calls were made as follows: active = hit-call score of the fitted dose curve at least 0.9, where 1 is the maximum; inactive = score below 0.9.
Hello, when you answer, please use one of the following outcomes: 1 (yes) (active), 0 (no) (inactive)

Please indicate how the test categorized CCOC(=O)CC(SP(=S)(OC)OC)C(=O)OCC (stereo unspecified) .
0 (no)

Please indicate how the test categorized `O=C(Nc1ccccc1)Nc1ccnc(Cl)c1` .
1 (yes)

Please indicate how the test categorized `CNC(=O)ON=CC(C)(C)SC` .
0 (no)

---

Assay: APR_HepG2_CellLoss_24hr: Apredica 24-hour HepG2 Assay for Cell Loss (AID 2282908)
Conditions: high-content imaging
Calls of active or inactive are those of the source. The calls were made as follows: active = hit-call score of the fitted dose curve at least 0.9, where 1 is the maximum; inactive = score below 0.9.
Hello, when you answer, please use one of the following outcomes: true (1) for active, false (0) for inactive

COc1cnc(OC)n2nc(NS(=O)(=O)c3c(OCC(F)F)cccc3C(F)(F)F)nc12    false (0)
Oc1ccccc1-c1ccccc1    false (0)
CCCC1COC(Cn2cncn2)(c2ccc(Cl)cc2Cl)O1 (stereo not given)    false (0)
COP(=S)(OC)Oc1nc(Cl)c(Cl)cc1Cl    false (0)
COC(=O)c1ccccc1C(=O)OC    false (0)

Now look at this entry.
Please indicate how the test categorized `COc1nc(NC(C)C)nc(NC(C)C)n1` .
false (0)

---

Experiment: Tanguay_ZF_120hpf_TRUN_legacy: (Legacy) Oregon State University Tanguay Lab 120 Hour Post-fertilization zebrafish Assay for Truncated Body (AID 2283655)
Records with an inconclusive call do not appear. Activity calls are given as the source filed them. The calls were made as follows: active = hit-call score of the fitted dose curve at least 0.9, where 1 is the maximum; inconclusive = response in the unintended direction; inactive = score below 0.9.
Hello, when you answer, please use one of the following outcomes: class 1 for active, class 0 for inactive

COc1cnc(OC)n2nc(NS(=O)(=O)c3c(OCC(F)F)cccc3C(F)(F)F)nc12    class 0

Please indicate how the test categorized CCCC1COC(Cn2cncn2)(c2ccc(Cl)cc2Cl)O1 (centres undefined) .
class 0

Please indicate how the test categorized `CNC(=O)ON=CC(C)(C)SC` .
class 1

Please indicate how the test categorized `CCNc1nc(Cl)nc(NC(C)C)n1` .
class 0

Please indicate how the test categorized CCCCC(CC)COC(=O)c1ccccc1C(=O)OCC(CC)CCCC (centres undefined) .
class 0

Please indicate how the test categorized COP(N)(=O)SC (centres undefined) .
class 0

Please indicate how the test categorized `Cc1cc(Cl)ccc1OCC(=O)O` .
class 0

Please indicate how the test categorized `COC(=O)c1ccccc1C(=O)OC` .
class 0

Please indicate how the test categorized `CCCCNC(=O)n1c(NC(=O)OC)nc2ccccc21` .
class 0

---

Experiment: Tanguay_ZF_120hpf_PE_legacy: (Legacy) Oregon State University Tanguay Lab 120 Hour Post-fertilization zebrafish Assay for Pericardial Edema (AID 2283640)
Procedure: Tanguay_ZF_120hpf_legacy is a whole embryo, multiplexed endpoint assay using zebrafish larvae exposed for 120 hours post fertilization on a 96-well plate.Tanguay_ZF_120hpf_PE_legacy is one of one assay component(s) measured or calculated from the Tanguay_ZF_120hpf_legacy assay. […] This assay endpoint, Tanguay_ZF_120hpf_PE_legacy, was analyzed in the positive analysis fitting direction relative to DMSO as the negative control and baseline of activity. […]
Inconclusive results are not listed. The source made the active and inactive calls. The calls were made as follows: active = hit-call score of the fitted dose curve at least 0.9, where 1 is the maximum; inconclusive = response in the unintended direction; inactive = score below 0.9.
Hello, when you answer, please use one of the following outcomes: 1 (active), 0 (inactive)

Please indicate how the test categorized `CON(C)C(=O)Nc1ccc(Cl)c(Cl)c1` .
0

Please indicate how the test categorized CCON=C(CC)C1=C(O)CC(c2c(C)cc(C)cc2C)CC1=O (configuration not stated) .
0

Please indicate how the test categorized `O=C(Nc1ccccc1)Nc1ccnc(Cl)c1` .
1

Please indicate how the test categorized COP(N)(=O)SC (configuration not stated) .
0

Please indicate how the test categorized CC(C)C1(C)N=C(c2nc3ccccc3cc2C(=O)O)NC1=O (configuration not stated) .
0

Please indicate how the test categorized `CN(C)C(=S)SSC(=S)N(C)C` .
0

Please indicate how the test categorized OC(c1ccc(Cl)cc1)(c1cncnc1)c1ccccc1Cl (configuration not stated) .
0

Please indicate how the test categorized CCOC(=O)CC(SP(=S)(OC)OC)C(=O)OCC (configuration not stated) .
1

Please indicate how the test categorized `CCCN(CCC)c1c([N+](=O)[O-])cc(S(N)(=O)=O)cc1[N+](=O)[O-]` .
0

Please indicate how the test categorized CCOC(=O)C(Cl)Cc1cc(-n2nc(C)n(C(F)F)c2=O)c(F)cc1Cl (configuration not stated) .
1

---

Experiment: CCTE_Shafer_MEA_acute_burst_number: CCTE's Neural Acute Assay for Single-Electrode Bursts, Shafer Lab (AID 2284013)
Activity calls are given as the source filed them. Rule for the calls: active = hit-call score of the fitted dose curve at least 0.9, where 1 is the maximum; inactive = score below 0.9.
Hello, when you answer, please use one of the following outcomes: 1 for active, -1 for inactive

Would you please look over these solved cases?
CS/C(C)=N/OC(=O)N(C)SN(C)C(=O)O/N=C(\C)SC    -1
COC(=O)C(C)Oc1ccc(Oc2ccc(Cl)cc2Cl)cc1 (stereo not given)    -1
N#Cc1nn(-c2c(Cl)cc(C(F)(F)F)cc2Cl)c(N)c1S(=O)C(F)(F)F (stereo not given)    -1
CC(C)(C)c1ccc(CSc2cnn(C(C)(C)C)c(=O)c2Cl)cc1    1

Now look at this entry.
Please indicate how the test categorized N#CC(CCc1ccc(Cl)cc1)(Cn1cncn1)c1ccccc1 (stereo not given) .
-1

---

Assay: BSK_3C_VCAM1: BioMAP Diversity Plus: 3C Assay for Vascular cell adhesion molecule 1 (VCAM1) Biomarker Activity (AID 2282999)
Conditions: BioMAP 3C HUVEC, VCAM1 ELISA, cytokine-stimulated; actives raise or lower the signal
Calls of active or inactive are those of the source. The calls were made as follows: active = hit-call score of the fitted dose curve at least 0.9, where 1 is the maximum; inactive = score below 0.9.
Hello, when you answer, please use one of the following outcomes: t for active, f for inactive

Would you please look over these solved cases?
CC(Oc1ccc(Cl)cc1Cl)C(=O)O (stereo unspecified)    f
COc1ccc(C(c2ccc(OC)cc2)C(Cl)(Cl)Cl)cc1    t
O=C(O)c1nc(Cl)ccc1Cl    f
N#CC(CCc1ccc(Cl)cc1)(Cn1cncn1)c1ccccc1 (stereo unspecified)    f
OC(c1ccc(Cl)cc1)(c1cncnc1)c1ccccc1Cl (stereo unspecified)    f
COC(=O)N(OC)c1ccccc1COc1ccn(-c2ccc(Cl)cc2)n1    f
N#Cc1nn(-c2c(Cl)cc(C(F)(F)F)cc2Cl)c(N)c1S(=O)C(F)(F)F (stereo unspecified)    f
CCCCNC(=O)n1c(NC(=O)OC)nc2ccccc21    f

Now look at this entry.
Please indicate how the test categorized `CNC(=O)ON=CC(C)(C)SC` .
f
